assay_procedure: BTK FAC plasma stability assay, rat plasma
Type: in vitro ADME
recorded_conditions: incubation to 24 h
endpoint_name: Plasma stability (h) rat

Ask: Which Plasma stability (h) rat is listed for CCCCCCCCCCCN(C(=O)CCCCCCCCCC(=O)O)C(CCC(=O)NCCOCCOCCOCCOCCOCCOCCOCCOCCOCCOCCOCCOCCC(=O)N1CCC[C@H]1CC(=O)OC(C)(C)c1ccc(C(=O)Nc2cc(F)cc(-c3ncnc4[nH]c(-c5ccc(CCN6CCC7(CC6)CCN(C(=O)c6ccc(OC)c(N8CCC(=O)NC8=O)c6)CC7)cc5)cc34)c2C)c(F)c1)C(=O)O (stereo partly drawn) ?
Reply: >48 h

Ask: Name the reported Plasma stability (h) rat value associated with the molecule COc1ccc(C(=O)N2CCC3(CCN(CCc4ccc(-c5cc6c(-c7cc(F)cc(NC(=O)c8ccc(C(C)(C)OC(=O)CNC(=O)CCOCCOCCOCCOCCOCCOCCOCCOCCOCCOCCOCCOCCNC(C)=O)cc8F)c7C)ncnc6[nH]5)cc4)CC3)CC2)cc1N1CCC(=O)NC1=O
Reply: 2.3 h

Ask: Can you look up the measured Plasma stability (h) rat of CCCCCCCCCCCN(C(=O)CCCCCCCCCC(=O)O)C(CCC(=O)NCCOCCOCCOCCOCCOCCOCCOCCOCCOCCOCCOCCOCCC(=O)N1CCN(CC(=O)OC(C)(C)c2ccc(C(=O)Nc3cc(F)cc(-c4ncnc5[nH]c(-c6ccc(CCN7CCC8(CC7)CCN(C(=O)c7ccc(OC)c(N9CCC(=O)NC9=O)c7)CC8)cc6)cc45)c3C)c(F)c2)CC1)C(=O)O (stereo not drawn) for me?
Reply: >48 h

Ask: Given the molecule CCCCCCCCCCCN(C(=O)CCCCCCCCCC(=O)O)C(CCC(=O)NCCOCCOCCOCCOCCOCCOCCOCCOCCOCCOCCOCCOCCC(=O)NCC(=O)OC(C)(C)c1ccc(C(=O)Nc2cc(F)cc(-c3ncnc4[nH]c(-c5ccc(CCN6CCC7(CC6)CCN(C(=O)c6ccc(OC)c(N8CCC(=O)NC8=O)c6)CC7)cc5)cc34)c2C)c(F)c1)C(=O)O (stereo not drawn) , what is its reported Plasma stability (h) rat?
Reply: 34.8 h

Ask: Entry COc1ccc(C(=O)N2CCC3(CCN(CCc4ccc(-c5cc6c(-c7cc(F)cc(NC(=O)c8ccc(C(C)(C)O)cc8F)c7C)ncnc6[nH]5)cc4)CC3)CC2)cc1N1CCC(=O)NC1=O : reported Plasma stability (h) rat = ?
Reply: 39.3 h

Ask: Entry CCCCCCCCCCCN(C(=O)CCCCCCCCCC(=O)O)C(CCC(=O)NCCOCCOCCOCCOCCOCCOCCOCCOCCOCCOCCOCCOCCC(=O)N[C@@H](C)C(=O)OC(C)(C)c1ccc(C(=O)Nc2cc(F)cc(-c3ncnc4[nH]c(-c5ccc(CCN6CCC7(CC6)CCN(C(=O)c6ccc(OC)c(N8CCC(=O)NC8=O)c6)CC7)cc5)cc34)c2C)c(F)c1)C(=O)O (stereo partly drawn) : reported Plasma stability (h) rat = ?
Reply: >48 h

Ask: Entry CCCCCCCCCCCN(C(=O)CCCCCCCCCC(=O)O)C(CCC(=O)NCCOCCOCCOCCOCCOCCOCCOCCOCCOCCOCCOCCOCCC(=O)NC(C)(C)CC(=O)OC(C)(C)c1ccc(C(=O)Nc2cc(F)cc(-c3ncnc4[nH]c(-c5ccc(CCN6CCC7(CC6)CCN(C(=O)c6ccc(OC)c(N8CCC(=O)NC8=O)c6)CC7)cc5)cc34)c2C)c(F)c1)C(=O)O (stereo not drawn) has what Plasma stability (h) rat?
Reply: >48 h

Ask: Fill blank: measured Plasma stability (h) rat of the molecule CCCCCCCCCCCN(C(=O)CCCCCCCCCC(=O)O)C(CCC(=O)NCCOCCOCCOCCOCCOCCOCCOCCOCCOCCOCCOCCOCCOCCOCCOCCOCCC(=O)NCC(=O)OC(C)(C)c1ccc(C(=O)Nc2cc(F)cc(-c3ncnc4[nH]c(-c5ccc(CCN6CCC7(CC6)CCN(C(=O)c6ccc(OC)c(N8CCC(=O)NC8=O)c6)CC7)cc5)cc34)c2C)c(F)c1)C(=O)O (stereo not drawn) is ____.
Reply: 6.8 h

Ask: Which Plasma stability (h) rat is reported for this molecule? CCCCCCCCCCCN(C(=O)CCCCCCCCCC(=O)O)C(CCC(=O)NCCOCCOCCOCCOCCOCCOCCOCCOCCOCCOCCOCCOCCC(=O)N(CC)CC(=O)OC(C)(C)c1ccc(C(=O)Nc2cc(F)cc(-c3ncnc4[nH]c(-c5ccc(CCN6CCC7(CC6)CCN(C(=O)c6ccc(OC)c(N8CCC(=O)NC8=O)c6)CC7)cc5)cc34)c2C)c(F)c1)C(=O)O (stereo not drawn)
Reply: >48 h

Ask: Which Plasma stability (h) rat is reported for this molecule? CCCCCCCCCCCN(C(=O)CCCCCCCCCC(=O)O)[C@@H](CCC(=O)NCCOCCOCCOCCOCCOCCOCCOCCOCCOCCOCCOCCOCCC(=O)NCC(=O)OC(C)(C)c1ccc(C(=O)Nc2cc(F)cc(-c3ncnc4[nH]c(-c5ccc(CCN6CCC7(CC6)CCN(C(=O)c6ccc(OC)c(N8CCC(=O)NC8=O)c6)CC7)cc5)cc34)c2C)c(F)c1)C(=O)O
Reply: 18.1 h

Ask: # get_value(readout='Plasma stability (h) rat', item= CCCCCCCCCCCN(C(=O)CCCCCCCCCC(=O)O)C(CCC(=O)NCCOCCOCCOCCOCCOCCOCCOCCOCCOCCOCCOCCOCCOCCOCCOCCOCCOCCOCCOCCOCCOCCOCCOCCOCCC(=O)NCC(=O)OC(C)(C)c1ccc(C(=O)Nc2cc(F)cc(-c3ncnc4[nH]c(-c5ccc(CCN6CCC7(CC6)CCN(C(=O)c6ccc(OC)c(N8CCC(=O)NC8=O)c6)CC7)cc5)cc34)c2C)c(F)c1)C(=O)O (stereo not drawn) )
Reply: 20.8 h

Ask: // returns reported Plasma stability (h) rat for input CCCCCCCCCCCN(C(=O)CCCCCCCCCC(=O)O)C(CCC(=O)NCCOCCOCCOCCOCCOCCOCCOCCOCCOCCOCCOCCOCCC(=O)NCC(=O)NCn1c(-c2ccc(CCN3CCC4(CC3)CCN(C(=O)c3ccc(OC)c(N5CCC(=O)NC5=O)c3)CC4)cc2)cc2c(-c3cc(F)cc(NC(=O)c4ccc(C(C)(C)O)cc4F)c3C)ncnc21)C(=O)O (stereo not drawn)
Reply: >48 h
